# Tested System: T1, 6xHis-tagged ENL YEATS domain (human, UniProt Q03111 1-148)
# T1 chain: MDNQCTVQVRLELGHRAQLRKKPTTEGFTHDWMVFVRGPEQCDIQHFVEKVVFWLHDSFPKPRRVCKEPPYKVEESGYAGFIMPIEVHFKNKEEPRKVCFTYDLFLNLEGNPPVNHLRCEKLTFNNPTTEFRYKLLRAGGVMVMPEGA
# Assay Remarks: BLI
Where no end group is shown, it is not given here. The star is where a group is joined. 2Furoyl = O=C(c1ccco1)*
Endpoint Label: pKd
Would you please state pKd, meaning minus log10 of the concentration in mol/L, as a bare number?

Input: Consider the binder shown here: Ac-VYCYK(2Furoyl) [tENL-S1f] What is its recorded pKd?
Output: 6.51
